- target-under-test: T1, monkey GPC3-His protein (monkey)
- T1 construct: Bought recombinant protein; also called monkey GPC3 protein
- test-summary: ELISA, monkey GPC3-His coated;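 further: Plate-coated antigen at 1 µg/mL, antibody binding 2 h at 37 °C, detected with HRP-labeled secondary antibody and TMB, absorbance at 450 nm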
measure-name: OD450 at 0.0001 nM (OD450)
Please respond with the number in OD450 and leave the unit unwritten.

Worked cases, answers included:
>  <binder>
F1.145.22 (antibody, human IgG1, kappa, V domains shown, Human-murine chimeric antibody) VH: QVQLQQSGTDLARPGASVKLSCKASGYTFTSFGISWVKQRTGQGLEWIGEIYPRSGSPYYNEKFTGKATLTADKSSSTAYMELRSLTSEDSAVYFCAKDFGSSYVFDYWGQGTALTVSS VL: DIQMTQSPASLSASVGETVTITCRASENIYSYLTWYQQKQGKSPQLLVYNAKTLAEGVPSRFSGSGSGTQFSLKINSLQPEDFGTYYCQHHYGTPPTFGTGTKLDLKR

>  <numeric-result>
0.05

$$$$
>  <binder>
F2.92.1 (antibody, human IgG1, kappa, V domains shown, Human-murine chimeric antibody) VH: QVQLQQSGAELVRPGASVKLSCKASGYIFSDYEIHWVKQTPVHGLECIGAVDPETGGTAYNQKFKGKATLTADKSSSTAYMELRSLTSEDSAVYFCTRFYSFAYWGQGTLVTVST VL: DVVMTQTPLSLPVSLGDQGSISCRSSQSLVHSNGNTYLQWYLQKPGQSPKLLIYKVSNRFSGVPDRFSGSGSGTDFTLKISRVEAEDLGVYFCCQSTHVLPTFGGGTKLEIKR

>  <numeric-result>
0.23

$$$$
>  <binder>
F1.115.8 (antibody, human IgG1, kappa, V domains shown, Human-murine chimeric antibody) VH: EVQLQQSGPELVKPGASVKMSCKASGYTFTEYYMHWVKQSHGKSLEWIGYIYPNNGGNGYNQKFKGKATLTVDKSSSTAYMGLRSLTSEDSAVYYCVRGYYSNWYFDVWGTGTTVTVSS VL: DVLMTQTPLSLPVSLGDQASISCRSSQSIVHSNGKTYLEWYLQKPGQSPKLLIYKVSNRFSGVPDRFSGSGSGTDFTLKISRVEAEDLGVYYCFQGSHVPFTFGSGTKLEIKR

>  <numeric-result>
0.05

$$$$
>  <binder>
F1.136.7 (antibody, human IgG1, kappa, V domains shown, Human-murine chimeric antibody) VH: EVQLQQSGPVMVKPGPSVKISCQTSGFTFTDYYIHWVKQSHGKSLEWIGLVFPYDGGTNYNQKFKDKATLTLDTSSSTAYMELNSLTSEDSAVYYCARAGGFSYALNYWGQGTSVTVSS VL: DIQMTQSPSSLSASLGGKVTITCKASQDINNYIAWYQHKPGKGPRLLIHFTSTLQPGIPSRFSGSGSGRDYSFSISNLEPEDIATYYCLQYDNLLLTFGAGTKLELKR

>  <numeric-result>
0.05

$$$$

Note: attention shifts to another entry.
What does the data say about its OD450 at 0.0001 nM? Entry: F2.154.1 (antibody, human IgG1, kappa, V domains shown, Human-murine chimeric antibody) VH: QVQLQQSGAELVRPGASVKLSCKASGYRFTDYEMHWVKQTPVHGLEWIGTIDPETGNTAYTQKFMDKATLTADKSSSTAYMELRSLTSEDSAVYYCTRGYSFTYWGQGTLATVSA VL: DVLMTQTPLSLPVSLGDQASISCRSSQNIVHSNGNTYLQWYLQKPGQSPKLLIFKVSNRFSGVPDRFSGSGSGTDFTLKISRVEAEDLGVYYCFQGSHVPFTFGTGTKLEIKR
0.05
